These entries and their values trace back to the supplement of paper PMC6555819.

Overview of recorded PBM binding z-score for various sequences
system: LXRb:RXRa (NR concentration 270 nM, RXRa partner concentration 90 nM); experiment: PBM binding z-score (relative to random genomic background probes); higher = stronger binding; sequences stand for … in GC…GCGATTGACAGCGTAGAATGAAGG
Reply with just the number.

1) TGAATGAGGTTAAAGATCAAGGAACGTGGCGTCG = 1.96
2) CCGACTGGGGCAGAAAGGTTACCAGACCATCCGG = 0.525
3) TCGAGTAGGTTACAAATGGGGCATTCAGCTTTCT = 1.01
4) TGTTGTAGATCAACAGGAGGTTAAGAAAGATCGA = 0.701
5) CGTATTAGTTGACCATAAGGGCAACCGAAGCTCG = 0.258
6) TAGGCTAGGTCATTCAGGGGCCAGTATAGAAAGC = 2.79
7) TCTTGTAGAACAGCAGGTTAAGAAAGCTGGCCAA = -0.0015
8) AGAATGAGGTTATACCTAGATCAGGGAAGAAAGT = 1.31
9) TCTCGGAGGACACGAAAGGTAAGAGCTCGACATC = -0.242
10) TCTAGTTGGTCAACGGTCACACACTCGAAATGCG = 1.04

# PBM binding z-score lookup, item `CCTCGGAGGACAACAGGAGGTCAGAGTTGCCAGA`
1.57

Input `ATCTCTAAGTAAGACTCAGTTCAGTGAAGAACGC`
0.112

Param item: `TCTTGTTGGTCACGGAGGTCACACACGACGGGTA`
3.62

And what about the sequence `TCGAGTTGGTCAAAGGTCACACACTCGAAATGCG` ?
5.33

Now consider `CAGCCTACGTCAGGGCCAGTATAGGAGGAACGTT` .
-0.547

`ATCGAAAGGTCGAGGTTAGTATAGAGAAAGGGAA` ?
2.93

`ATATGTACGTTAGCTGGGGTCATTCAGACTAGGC` , same question.
4.39

Now the sequence `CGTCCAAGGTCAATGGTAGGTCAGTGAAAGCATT`
4.27

Another sequence to look at: `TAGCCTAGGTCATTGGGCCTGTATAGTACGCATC`
2.39

// repeat for `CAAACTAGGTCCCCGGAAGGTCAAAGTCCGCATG` and report
2.9

Further, for `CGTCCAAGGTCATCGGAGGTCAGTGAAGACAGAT` ?
6.23

Thanks! And `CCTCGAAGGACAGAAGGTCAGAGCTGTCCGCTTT` ?
1.28

Now this one: `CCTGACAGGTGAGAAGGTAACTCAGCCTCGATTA`
-0.0265

`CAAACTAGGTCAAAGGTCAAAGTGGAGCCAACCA` ?
6.96

----------
test system: PXR homodimer (NR concentration 270 nM); assay: PBM binding z-score (relative to random genomic background probes); higher = stronger binding; sequences stand for … in GC…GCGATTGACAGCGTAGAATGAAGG
QUANTITY NAME: PBM binding z-score
# print the numeric value only

Examples with their reported PBM binding z-score follow.
1) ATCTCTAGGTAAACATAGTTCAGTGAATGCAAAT = 0.955
2) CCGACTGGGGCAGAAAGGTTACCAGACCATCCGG = -0.356
3) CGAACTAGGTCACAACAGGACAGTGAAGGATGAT = 0.241
4) TAGCCTAGGTCATGGGCCAGTATTCCACGCGAAC = -0.956
5) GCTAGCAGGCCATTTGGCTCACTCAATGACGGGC = -0.87

# get_value(readout= PBM binding z-score, system= PXR homodimer (NR concentration 270 nM)) for `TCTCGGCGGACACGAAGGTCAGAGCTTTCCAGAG`
-0.42
